test system: HT29 colon; test: MTT growth inhibition, 72 h, HT29; type: cell-based, human
Kindly supply the reported GI50 values for the records listed here.
Give bare numbers, in nM.

Sample answers from the record:
query: Any idea what GI50 came out for COc1ccc2cc([C@H](C)C(=O)[O][Pt+2]3([OH])[N]4C=CC=c5ccc6c(c54)[N]3C=CC=6)ccc2c1.N[C@H]1CCCC[C@@H]1N [Complex 1, [Pt^IV(phen)(SS-DACH)(NPX)(OH)]^2+] on HT29 colon?
result: 400

query: Any idea what GI50 came out for COc1ccc2cc([C@H](C)C(=O)[O][Pt+2]3([OH])[N]4C=CC=c5c(C)c(C)c6c(c54)[N]3C=CC=6)ccc2c1.N[C@H]1CCCC[C@@H]1N on HT29 colon?
result: 28

Next:
query: Any idea what GI50 came out for COc1ccc2cc([C@H](C)C(=O)[O][Pt+2]3([OH])[N]4C=CC=c5cc(C)c6c(c54)[N]3C=CC=6)ccc2c1.N[C@H]1CCCC[C@@H]1N (stereo partly drawn) [Complex 2, [Pt^IV(5-Mephen)(SS-DACH)(NPX)(OH)]^2+] on HT29 colon?
result: 210

###

Target: COX-2 (human) (Homo sapiens)
Construct: purchased Cayman Chemical Item No. 701080
Sequence (P35354 18-604): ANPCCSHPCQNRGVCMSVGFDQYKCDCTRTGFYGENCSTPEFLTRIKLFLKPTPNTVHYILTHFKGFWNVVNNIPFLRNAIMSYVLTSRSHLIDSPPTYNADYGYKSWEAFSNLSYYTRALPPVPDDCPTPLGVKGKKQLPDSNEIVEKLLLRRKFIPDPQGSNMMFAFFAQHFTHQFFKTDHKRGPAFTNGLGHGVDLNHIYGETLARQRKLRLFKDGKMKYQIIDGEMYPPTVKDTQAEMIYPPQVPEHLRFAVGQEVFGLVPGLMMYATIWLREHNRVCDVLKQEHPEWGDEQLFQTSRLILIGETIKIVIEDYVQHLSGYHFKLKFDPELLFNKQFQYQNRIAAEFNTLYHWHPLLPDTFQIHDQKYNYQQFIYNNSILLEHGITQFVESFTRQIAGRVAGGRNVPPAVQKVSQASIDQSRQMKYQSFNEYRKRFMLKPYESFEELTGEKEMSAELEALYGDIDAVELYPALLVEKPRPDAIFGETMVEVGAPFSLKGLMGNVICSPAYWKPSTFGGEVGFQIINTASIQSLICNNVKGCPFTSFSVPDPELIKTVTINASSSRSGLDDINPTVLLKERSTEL
Assay: COX-2 (human) Inhibitor Screening Assay Kit (ELISA)
Type: biochemical
Text: NSAIDs are well recognised as inhibitors of the COX enzymes, COX-1 and COX-2 [37, 42, 45]. […] COX-1 is typically expressed in most tissues and is associated with normal physiological functions, particularly by maintaining prostaglandin production at basal levels. […] nm using the SpectraMax M2 series multi-mode microplate reader (Molecular Devices, […]
Property measured: Percentage COX-2 Inhibitory Activity

Sample answers from the record:
query: Please look up its Percentage COX-2 Inhibitory Activity: Cc1c(C)c2cccnc2c2ncccc12.N[C@H]1CCCC[C@@H]1N.[Pt] [Complex 56MESS, [Pt^II(5,6-Me2phen)(SS-DACH)]^2+]
result: 5 ± 4%

query: Please look up its Percentage COX-2 Inhibitory Activity: COc1ccc2c(c1)c(CC(=O)OCC(=O)[O][Pt-2]13([OH])([NH2+][C@H]4CCCC[C@@H]4[NH2+]1)[n+]1cccc4cc(C)c5ccc[n+]3c5c41)c(C)n2C(=O)c1ccc(Cl)cc1 [Complex 5, [Pt^IV(5-Mephen)(SS-DACH)(ACE)(OH)]^2+]
result: 36 ± 2%

Lab note: next molecule to report on.
query: Please look up its Percentage COX-2 Inhibitory Activity: C1=C[N]2[Pt+2][N]3C=CC=c4ccc(c2c43)=C1.N[C@H]1CCCC[C@@H]1N
result: 8 ± 4%

###

test system: HT29 colon cells; test: ROS production, DCFDA/H2DCFDA cellular ROS assay; type: cell-based, human; conditions: HT29, 72 h, treatment at GI50 concentration (TBHP positive control 20 μM)
Property measured: ROS Production (RFU)
Answers are plain numbers, in RFU.

query: Any idea what ROS Production came out for N.N.[Cl][Pt][Cl] [Cisplatin, cis-diamminedichloroplatinum(II)] on HT29 colon cells?
result: 392

query: Any idea what ROS Production came out for COc1ccc2cc([C@H](C)C(=O)O)ccc2c1 on HT29 colon cells?
result: 15

query: Any idea what ROS Production came out for CC(C)(C)OO [TBHP, tert-butyl hydroperoxide] on HT29 colon cells?
result: 497

Lab note: next compound to report on.
query: Any idea what ROS Production came out for COc1ccc2c(c1)c(CC(=O)OCC(=O)O)c(C)n2C(=O)c1ccc(Cl)cc1 on HT29 colon cells?
result: 132
